assayed.system: DNA polymerase eta (Homo sapiens) (UniProt Q9Y253)
Sequence (Q9Y253 whole entry, looked up): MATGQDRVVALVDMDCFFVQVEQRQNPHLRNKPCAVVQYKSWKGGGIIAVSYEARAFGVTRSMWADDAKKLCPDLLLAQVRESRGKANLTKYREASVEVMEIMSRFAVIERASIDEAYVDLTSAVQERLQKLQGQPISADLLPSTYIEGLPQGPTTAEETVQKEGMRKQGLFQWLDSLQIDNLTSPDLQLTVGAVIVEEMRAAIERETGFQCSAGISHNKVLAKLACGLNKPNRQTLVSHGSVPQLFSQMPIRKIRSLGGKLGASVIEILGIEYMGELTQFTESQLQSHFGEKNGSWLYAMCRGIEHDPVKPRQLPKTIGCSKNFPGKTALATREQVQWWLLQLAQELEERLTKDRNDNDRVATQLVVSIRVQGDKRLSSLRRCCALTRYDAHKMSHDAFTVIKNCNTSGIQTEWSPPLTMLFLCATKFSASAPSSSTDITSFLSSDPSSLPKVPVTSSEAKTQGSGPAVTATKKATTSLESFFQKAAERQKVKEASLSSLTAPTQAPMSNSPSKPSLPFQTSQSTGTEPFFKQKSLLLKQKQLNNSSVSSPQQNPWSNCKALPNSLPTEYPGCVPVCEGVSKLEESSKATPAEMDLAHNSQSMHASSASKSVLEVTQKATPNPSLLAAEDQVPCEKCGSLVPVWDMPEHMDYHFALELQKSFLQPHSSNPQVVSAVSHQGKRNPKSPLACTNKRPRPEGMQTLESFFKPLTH
experiment.notes: qHTS for Inhibitors of Polymerase Eta
run.conditions: recombinant Pol eta, fluorescent DNA replication assay; series mostly up to 114 µM
About 4,700 (1.2%) of roughly 390,000 compounds were called active. Not shown: some 4% with an inconclusive outcome. Calls come from the whole dose curve; as a rule, active = well fitted inhibition curve with a large enough effect; inconclusive = small, poorly fitted or top-dose-only effect, or another doubt; inactive = no such curve, though single readings can be large or run the other way. This is one part of a sample in which actives are shown more often than they occur.
Labels: active, inactive

[
  {
    "molecule": "Cc1cc(C(=O)OCC(=O)NCc2ccco2)c(C)n1-c1ccccc1",
    "category": "active"
  },
  {
    "molecule": "COc1ccc(CN2C(=O)C(NC(=O)c3cccc(C)c3)(C(F)(F)F)N=C2c2ccccc2)cc1 (stereo not given)",
    "category": "inactive"
  },
  {
    "molecule": "CN(C(=O)COC(=O)c1cc(-c2ccco2)nc2ccccc12)C1CCS(=O)(=O)C1 (stereo not given)",
    "category": "active"
  },
  {
    "molecule": "Cc1ccccc1S(=O)(=O)N1[C@@H](c2cccc(Cl)c2)C(C(=O)O)=CC[C@H]1c1ccc(Cl)cc1",
    "category": "active"
  },
  {
    "molecule": "CN1OC(COC(=O)c2ccc(Cl)cc2)CC1c1ccccc1 (stereo not given)",
    "category": "inactive"
  },
  {
    "molecule": "CCOC(=O)C1=C(C)OC(N)=C(C#N)C1c1cncc(-c2ccc(F)cc2)c1 (stereo not given)",
    "category": "inactive"
  },
  {
    "molecule": "O=[N+]([O-])c1cc(Cl)cc(/C=N/NC(=S)Nc2cc(S(=O)(=O)N3CCOCC3)ccc2Cl)c1O",
    "category": "active"
  },
  {
    "molecule": "CCOC(=O)Cn1c(=O)n(-c2ccccc2OC)c2nc(-c3cccc(F)c3)nc(C(N)=O)c21",
    "category": "inactive"
  },
  {
    "molecule": "O=C(COC(=O)c1cc(S(=O)(=O)N2CCOCC2)ccc1Cl)NCCc1ccccc1",
    "category": "inactive"
  },
  {
    "molecule": "O=C(CSc1cn(CC(=O)N2CCOCC2)c2ccccc12)Nc1ccccc1",
    "category": "inactive"
  },
  {
    "molecule": "COCCSc1nnc(NC(=O)c2cc(OC)c(OC)cc2[N+](=O)[O-])s1",
    "category": "inactive"
  },
  {
    "molecule": "Cc1ccc(NC(=O)Cn2cnc3nc4c(cc3c2=O)CCCC4)cc1Cl",
    "category": "inactive"
  },
  {
    "molecule": "CCC(=O)N1CCc2cc(S(=O)(=O)NC(Cc3ccccc3)C(=O)NCc3ccc(C)cc3)ccc21 (stereo not given)",
    "category": "inactive"
  },
  {
    "molecule": "CCS(=O)(=O)N1CCc2cc(C(=O)NCc3ccc(OC)cc3)ccc21",
    "category": "inactive"
  },
  {
    "molecule": "CCOc1ccc(-n2nc3ccc(NC(=O)c4ccc(OC)c(Cl)c4)cc3n2)cc1",
    "category": "inactive"
  },
  {
    "molecule": "Cc1ccc(NC(=O)c2cc(-c3ccc(C)o3)nc3ccccc23)nc1",
    "category": "active"
  },
  {
    "molecule": "COc1ccc(Cl)cc1NC(=O)CSc1nc2ccccc2c2nc(-c3ccccc3)nn12",
    "category": "inactive"
  },
  {
    "molecule": "C=CCC1(C#N)C(=S)NC(C)=C(C(=O)OCC)C1c1ccccc1 (stereo not given)",
    "category": "inactive"
  },
  {
    "molecule": "Cn1c(=O)c2c(SCC(=O)N3CCc4ccccc43)nc(-c3ccc(Cl)cc3)nc2n(C)c1=O",
    "category": "inactive"
  },
  {
    "molecule": "CCCc1nn2c(=O)cc(COC(=O)c3ccc(NC(=O)C(C)Oc4ccccc4)cc3)nc2s1 (stereo not given)",
    "category": "inactive"
  },
  {
    "molecule": "CN(CCOc1ccccc1)Cc1nc2cc(Cl)ccc2c(=O)[nH]1",
    "category": "inactive"
  },
  {
    "molecule": "Cc1cc(C)c2nc(SCC(=O)N(C)C3CCS(=O)(=O)C3)cc(C)c2c1 (stereo not given)",
    "category": "inactive"
  },
  {
    "molecule": "O=C(COC(=O)CCC(=O)c1cccs1)NCc1ccco1",
    "category": "active"
  },
  {
    "molecule": "Cc1ccc(S(=O)(=O)n2nc(C)c(S(=O)(=O)N3CCCCCC3)c2C)cc1",
    "category": "inactive"
  },
  {
    "molecule": "Cc1ccc(S(=O)(=O)N2[C@@H](c3ccccc3F)C(C(=O)O)=CC[C@H]2c2ccc(Cl)cc2)cc1",
    "category": "inactive"
  },
  {
    "molecule": "Cc1nnc(SCC(=O)NCc2cccs2)[nH]c1=O",
    "category": "inactive"
  },
  {
    "molecule": "Cc1ccc2[nH]c3c(=O)n(CC(=O)NC(C)C)ncc3c2c1",
    "category": "inactive"
  },
  {
    "molecule": "O=C(CC1CCCCC1)NCc1ccco1",
    "category": "inactive"
  },
  {
    "molecule": "Cc1nc2c(c(C)nn2-c2ccccc2)c(C)c1CCC(=O)NCCc1ccc(Cl)cc1",
    "category": "inactive"
  },
  {
    "molecule": "CCCOc1cccc(C(=O)Nc2cccc(NC(=O)c3ccc(C(C)(C)C)cc3)c2)c1",
    "category": "inactive"
  },
  {
    "molecule": "Cc1ccc(S(=O)(=O)N2CCCC2C(=O)OCc2nc3sc(C)c(C)c3c(=O)[nH]2)cc1 (stereo not given)",
    "category": "inactive"
  },
  {
    "molecule": "CCN(C(=O)COC(=O)/C=C/c1nc2ccccc2s1)C1CCS(=O)(=O)C1 (stereo not given)",
    "category": "inactive"
  },
  {
    "molecule": "CCOc1ccccc1Nc1nnc(SCc2ccc(C(=O)OC)o2)s1",
    "category": "inactive"
  },
  {
    "molecule": "COc1ccc(CCNC(=O)c2cn(C)c3ccc(S(=O)(=O)N(C)C4CCCCC4)cc3c2=O)cc1OC",
    "category": "inactive"
  },
  {
    "molecule": "CN(c1ccccc1)S(=O)(=O)c1ccc(Cl)c(C(=O)OCC(=O)N2CCOCC2)c1",
    "category": "inactive"
  },
  {
    "molecule": "Cc1ccc(-c2nn(CCC(=O)Nc3ccc(OC(F)(F)F)cc3)c(=O)c3ccccc23)cc1",
    "category": "inactive"
  },
  {
    "molecule": "COc1ccccc1C(=O)OCC(=O)NCCNC(=O)COC(=O)c1ccccc1OC",
    "category": "inactive"
  },
  {
    "molecule": "Cc1c(-c2cccc(NC(=O)C(C)(C)C)c2)nc2ncccn12",
    "category": "inactive"
  },
  {
    "molecule": "COc1cccc(C(=O)Nc2ccc(-c3cc(C(F)(F)F)nn3-c3ccccc3)cc2)c1",
    "category": "inactive"
  },
  {
    "molecule": "O=C(Nc1ccc2nc(SCC(=O)N3CCCc4ccccc43)sc2c1)c1ccc(F)cc1",
    "category": "inactive"
  }
]
